Can you tell me log10 of IC50 for the items I'm about to list?
biological target: UniProtKB Q07343; test: Inhibition of human U-937 cells derived PDE4B using [3H] cAMP as substrate measured after 30 mins
Sequence (Q07343 whole entry): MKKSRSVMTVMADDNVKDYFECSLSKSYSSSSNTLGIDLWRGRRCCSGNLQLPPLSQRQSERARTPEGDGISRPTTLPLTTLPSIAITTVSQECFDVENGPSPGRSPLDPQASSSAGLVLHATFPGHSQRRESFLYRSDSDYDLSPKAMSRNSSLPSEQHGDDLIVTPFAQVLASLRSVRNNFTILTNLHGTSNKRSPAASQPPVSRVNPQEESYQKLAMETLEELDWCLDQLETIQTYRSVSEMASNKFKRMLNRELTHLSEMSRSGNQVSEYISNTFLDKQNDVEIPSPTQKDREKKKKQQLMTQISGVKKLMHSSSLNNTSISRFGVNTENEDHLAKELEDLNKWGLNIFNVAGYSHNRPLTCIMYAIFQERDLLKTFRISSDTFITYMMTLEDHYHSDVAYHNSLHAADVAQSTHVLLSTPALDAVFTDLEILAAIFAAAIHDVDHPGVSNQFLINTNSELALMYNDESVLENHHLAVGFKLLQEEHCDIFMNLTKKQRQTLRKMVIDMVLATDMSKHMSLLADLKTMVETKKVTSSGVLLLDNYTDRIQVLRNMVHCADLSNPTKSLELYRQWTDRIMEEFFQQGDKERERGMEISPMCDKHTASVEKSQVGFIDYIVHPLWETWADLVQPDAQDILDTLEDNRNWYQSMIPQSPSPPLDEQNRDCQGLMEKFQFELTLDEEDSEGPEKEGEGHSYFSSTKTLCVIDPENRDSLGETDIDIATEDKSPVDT
# log10 transformed; quantity=IC50; unit=µM

Past entries and their recorded results:
{"smilesRepresentation": "N#C/N=C1/SCCN1C(=O)c1ccc(-c2ccc(Br)cc2)o1", "measurementLabel": "log10 of IC50", "endpointValue": 1.70}
{"smilesRepresentation": "N#C/N=C1/SCCN1C(=O)c1ccc(-c2ccc(Cl)cc2)o1", "measurementLabel": "log10 of IC50", "endpointValue": 0.82}
{"smilesRepresentation": "N#C/N=C1/SCCN1C(=O)c1coc(-c2c(F)cccc2F)n1", "measurementLabel": "log10 of IC50", "endpointValue": 1.21}
{"smilesRepresentation": "N#C/N=C1/SCCN1C(=O)c1coc(-c2cccc(F)c2)n1", "measurementLabel": "log10 of IC50", "endpointValue": 1.44}
{"smilesRepresentation": "N#C/N=C1/SCCN1C(=O)c1ccc(-c2c(F)cccc2F)o1", "measurementLabel": "log10 of IC50", "endpointValue": 1.34}
{"smilesRepresentation": "N#C/N=C1/SCCN1Cc1ccc(-c2c(F)cccc2F)o1", "measurementLabel": "log10 of IC50", "endpointValue": 1.66}
{"smilesRepresentation": "COc1ccc(-c2ccc(CN3CCS/C3=N/C#N)o2)cc1", "measurementLabel": "log10 of IC50", "endpointValue": 0.98}
{"smilesRepresentation": "N#C/N=C1/SCCN1Cc1ccc(-c2ccc(F)cc2)o1", "measurementLabel": "log10 of IC50", "endpointValue": 1.28}
{"smilesRepresentation": "N#C/N=C1/SCCN1C(=O)c1ccc(-c2cccc(Cl)c2)o1", "measurementLabel": "log10 of IC50", "endpointValue": 1.47}
{"smilesRepresentation": "N#C/N=C1/SCCN1C(=O)c1ccc(-c2ccccc2F)o1", "measurementLabel": "log10 of IC50", "endpointValue": 1.80}

Batch request: log10 of IC50 per item, same order as input.
1. COc1ccc(-c2nc(C(=O)N3CCS/C3=N/C#N)co2)cc1
2. N#C/N=C1/SCCN1C(=O)c1coc(-c2cccc(Cl)c2)n1
3. N#C/N=C1/SCCN1Cc1ccc(-c2ccc(Br)cc2)o1

Completion:
0.15
1.26
1.72

Prompt: I'd like to know its log10 of IC50. The molecule in question is N#C/N=C1/SCCN1C(=O)c1coc(-c2ccc(Cl)cc2)n1
Completion: 0.56
